Experiment: Preliminary solubility study
Format: physicochemical
Conditions: water, DMSO, and PBS

{"columns": ["sample_smiles", "solubility"],
 "data": [
  ["CC[C@H](C)[C@@H]1NC(=O)[C@@](C)(NC(=O)[C@H](CCCNC(=N)N)NC(=O)[C@H](CC(C)C)NC(=O)[C@@H](NC(=O)[C@H](CCC(N)=O)NC(=O)[C@H](CC(C)C)NC(C)=O)[C@@H](C)O)CCCC=CCCC[C@@](C)(C(=O)N[C@@H](CC(C)C)C(=O)N[C@@H](Cc2ccc3ccccc3c2)C(N)=O)NC(=O)[C@H](CCCNC(=N)N)NC(=O)[C@H](CCC(N)=O)NC1=O", "≥ 1000 µg/mL"]
]}
